Test system: Plasmodium falciparum
assay_protocol: Antimalarial activity against chloroquine-sensitive Plasmodium falciparum 3D7 infected O positive human red blood cells assessed as dead rings and schizonts at 50 ug/ml after 40 hr by Giemsa staining
Assay type: functional
The threshold is 30%. Values of Activity beneath it are tagged true; values meeting or exceeding it are tagged false.

Please review the entries below; each comes with its answer.
• Oc1cc(Nc2ccnc3cc(Cl)ccc23)ccc1CNc1ccc(Br)cc1F = true
• Oc1ccc(NCc2ccc(Nc3ccnc4cc(Cl)ccc34)cc2O)cc1 = true
• OCCNCc1ccc(Nc2ccnc3cc(Cl)ccc23)cc1O = false
• NC(=O)NCc1ccc(Nc2ccnc3cc(Cl)ccc23)cc1O = true
• O=C(O)c1ccc(NCc2ccc(Nc3ccnc4cc(Cl)ccc34)cc2O)cc1 = false

Q: Dear reviewer, please state whether "Oc1cc(Nc2ccnc3cc(Cl)ccc23)ccc1CNc1ccc(F)cc1" has Activity strictly beneath 30%.
Result: true

Q: Dear reviewer, please state whether "Oc1cc(Nc2ccnc3cc(Cl)ccc23)ccc1CNC1CCNCC1" has Activity strictly beneath 30%.
Result: false
